Data provenance: ChEMBL document CHEMBL1124476

- System: Rattus norvegicus
- run_description: Mean excretion of sodium in conscious rats at a dose of 0.3 mg/kg given orally
- Type: ADME, organism-based
- Set-up: dose 0.3 mg/kg, route oral
- reported_conditions: in vivo, po
# Mean excretion of Na+ >= 0.7 m equiv gives Criterion met, anything below gives Criterion not met

Reference set, count: 3
Quick check, Mean excretion of Na+ >= 0.7 m equiv? Nc1nc(N)c2nc(-c3ccccc3)c(N)nc2n1
Criterion not met

Quick check, Mean excretion of Na+ >= 0.7 m equiv? CC1N=C(c2ccccc2)c2cc(Cl)ccc2-n2c1nnc2C(CN(C)C)c1ccccc1 (stereo not given)
Criterion met

Quick check, Mean excretion of Na+ >= 0.7 m equiv? COc1ccc(C(CN(C)C)c2nnc3n2-c2ccc(Cl)cc2C(c2ccccc2)=NC3)cc1 (stereo not given)
Criterion not met

Continuing:
Quick check, Mean excretion of Na+ >= 0.7 m equiv? NS(=O)(=O)c1cc(C(=O)O)c(NCc2ccco2)cc1Cl [FUROSEMIDE]
Criterion met

Quick check, Mean excretion of Na+ >= 0.7 m equiv? CN(C)CC(c1ccccc1Cl)c1nnc2n1-c1ccc(Cl)cc1C(c1ccccc1)=NC2 (stereo not given)
Criterion met

----------
- System: Rattus norvegicus
- run_description: Mean excretion of Cl- in conscious rats at a dose of 0.3 mg/kg given orally
- Type: ADME, organism-based, Urine
- Set-up: dose 0.3 mg/kg, route oral
- reported_conditions: in vivo, po
// values below are reported Mean excretion of Cl-
Give the value, in units of m equiv, as a plain number.

These solved cases illustrate the format of a correct answer.
Entry CN(C)CC(c1ccccc1)c1nnc2n1-c1ccc(I)cc1C(c1ccccc1)=NC2 (stereo not given) — recorded Mean excretion of Cl- = 0.8

Entry CC1N=C(c2ccccc2)c2cc(Cl)ccc2-n2c1nnc2C(CN(C)C)c1ccccc1 (stereo not given) — recorded Mean excretion of Cl- = 0.82

Entry I.NCC(c1ccccc1)c1nnc2n1-c1ccc(Cl)cc1C(c1ccccc1)=NC2 (stereo not given) — recorded Mean excretion of Cl- = 0.81

Entry CN(C)CC(c1ccccc1)c1nnc2n1-c1ccc(Br)cc1C(c1ccccc1)=NC2 (stereo not given) — recorded Mean excretion of Cl- = 0.72

Entry CN(C)CCc1nnc2n1-c1ccc(Br)cc1C(c1ccccn1)=NC2 — recorded Mean excretion of Cl- = 0.81

Continuing:
Entry CN(C)CC(c1ccccc1Cl)c1nnc2n1-c1ccc(Cl)cc1C(c1ccccc1)=NC2 (stereo not given) — recorded Mean excretion of Cl- = 1.08

Entry NS(=O)(=O)c1cc2c(cc1Cl)NCNS2(=O)=O [HYDROCHLOROTHIAZIDE] — recorded Mean excretion of Cl- = 1.42

----------
// values below are reported Mean excretion of K+
- System: Rattus norvegicus
- run_description: Mean excretion of potassium in conscious rats at a dose of 1.0 mg/kg given orally
- Format: ADME, organism-based
- Set-up: dose 1 mg/kg, route oral
- reported_conditions: in vivo, po
Give the value, in units of m equiv, as a plain number.

These solved cases illustrate the format of a correct answer.
Entry CN(C)CC(c1ccccc1)c1nnc2n1-c1ccc(Cl)cc1C(c1ccccc1)=NC2 (stereo not given) — recorded Mean excretion of K+ = 0.25

Entry COc1cccc(C(CN(C)C)c2nnc3n2-c2ccc(Cl)cc2C(c2ccccc2)=NC3)c1 (stereo not given) — recorded Mean excretion of K+ = 0.21

Entry CSc1ccc2c(c1)C(c1ccccc1)=NCc1nnc(C(CN(C)C)c3ccccc3)n1-2 (stereo not given) — recorded Mean excretion of K+ = 0.31

Entry NS(=O)(=O)c1cc2c(cc1Cl)NCNS2(=O)=O [HYDROCHLOROTHIAZIDE] — recorded Mean excretion of K+ = 0.32

Continuing:
Entry CN(C)CC(c1ccccc1)c1nnc2n1-c1ccc(Br)cc1C(c1ccccc1)=NC2 (stereo not given) — recorded Mean excretion of K+ = 0.21
